Reference source for all entries: ChEMBL document CHEMBL5465560

- target-or-test-system: cAMP-dependent protein kinase catalytic subunit alpha (Homo sapiens)
- test-description: Selectivity interaction (Kinase panel (Enzymatic assay, microfluidic mobility shift readout, Caliper lifesciences, conc. ATP = Km for each kinase)) EUB0000678a PRKACA
measured-property: IC50

Challenge: Please give the measured IC50 for this compound: CCN1CCN(c2ccc(Nc3cc(N(C)C(=O)Nc4c(Cl)c(OC)cc(OC)c4Cl)ncn3)cc2)CC1
Response given: > 10 µM

---

- test-description: Selectivity interaction (Kinase panel (cellular selectivity, Bright-Glo proliferation assay in BaF3 Cell line, Promega)) EUB0000678a RET
measured-property: pIC50
Please express pIC50 as -log10 of the molar concentration.

Challenge: Entry CCN1CCN(c2ccc(Nc3cc(N(C)C(=O)Nc4c(Cl)c(OC)cc(OC)c4Cl)ncn3)cc2)CC1 [INFIGRATINIB] : reported pIC50 = ?
Response given: 5.47

---

- target-or-test-system: Insulin receptor (Homo sapiens, UniProt P06213)
- Sequence (P06213 28-758 limits assumed): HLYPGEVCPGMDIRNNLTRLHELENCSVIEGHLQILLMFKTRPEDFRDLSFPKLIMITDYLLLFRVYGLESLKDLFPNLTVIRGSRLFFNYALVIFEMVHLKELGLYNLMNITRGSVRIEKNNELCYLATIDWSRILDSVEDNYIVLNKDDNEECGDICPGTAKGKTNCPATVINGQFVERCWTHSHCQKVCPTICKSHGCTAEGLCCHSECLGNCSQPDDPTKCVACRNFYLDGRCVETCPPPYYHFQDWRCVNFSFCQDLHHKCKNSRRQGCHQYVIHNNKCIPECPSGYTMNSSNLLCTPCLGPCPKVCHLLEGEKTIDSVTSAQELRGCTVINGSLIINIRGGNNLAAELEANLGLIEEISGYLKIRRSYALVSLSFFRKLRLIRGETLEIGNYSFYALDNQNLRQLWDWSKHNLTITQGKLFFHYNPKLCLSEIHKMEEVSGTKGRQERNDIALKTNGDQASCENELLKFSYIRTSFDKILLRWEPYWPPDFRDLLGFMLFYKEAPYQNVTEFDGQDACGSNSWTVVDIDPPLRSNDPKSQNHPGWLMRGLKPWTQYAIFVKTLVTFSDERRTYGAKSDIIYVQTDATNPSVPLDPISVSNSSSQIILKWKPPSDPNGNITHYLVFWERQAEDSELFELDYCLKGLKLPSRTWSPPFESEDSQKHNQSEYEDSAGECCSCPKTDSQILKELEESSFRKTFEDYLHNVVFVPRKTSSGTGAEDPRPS
- Sequence (P06213 763-1382 limits assumed): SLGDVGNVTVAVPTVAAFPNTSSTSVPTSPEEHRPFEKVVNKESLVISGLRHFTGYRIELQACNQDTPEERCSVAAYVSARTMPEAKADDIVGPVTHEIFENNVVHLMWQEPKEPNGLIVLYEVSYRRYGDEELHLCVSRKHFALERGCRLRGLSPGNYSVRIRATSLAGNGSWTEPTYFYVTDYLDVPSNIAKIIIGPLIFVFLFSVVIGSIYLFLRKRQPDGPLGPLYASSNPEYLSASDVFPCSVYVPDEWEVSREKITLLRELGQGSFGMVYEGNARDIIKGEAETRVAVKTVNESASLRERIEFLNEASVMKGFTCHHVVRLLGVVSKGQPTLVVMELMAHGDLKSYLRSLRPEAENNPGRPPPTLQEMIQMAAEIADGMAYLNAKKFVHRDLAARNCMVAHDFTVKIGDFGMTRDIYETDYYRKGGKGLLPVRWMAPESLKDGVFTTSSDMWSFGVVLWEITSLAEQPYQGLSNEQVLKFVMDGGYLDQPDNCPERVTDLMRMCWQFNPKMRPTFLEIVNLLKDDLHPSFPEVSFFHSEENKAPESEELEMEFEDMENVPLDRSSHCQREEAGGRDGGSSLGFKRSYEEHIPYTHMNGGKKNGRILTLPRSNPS
measured-property: IC50

Challenge: IC50 for CCc1cccc(CC)c1NC(=O)c1nn(C)c2c1CCc1cnc(Nc3ccc(C(=O)NC4CCN(C)CC4)cc3OC(F)(F)F)nc1-2 ?
Response given: > 10 µM

---

- target-or-test-system: UniProtKB P17252
- test-description: Selectivity interaction (Kinase panel (radiometric inhibition assay)) EUB0000651a PRKCA
measured-property: IC50 (µM)
Response body: numeric value in µM, unit text excluded.

Challenge: Reported IC50 for UniProtKB P17252, given COc1cc(C)c(Sc2cnc(NC(=O)c3ccc(CNC(C)C(C)(C)C)cc3)s2)cc1C(=O)N1CCN(C(C)=O)CC1 (stereo unspecified) ?
Response given: 24

---

- target-or-test-system: Cyclin-dependent kinase 9 (Homo sapiens)
- Sequence (P50750 whole entry): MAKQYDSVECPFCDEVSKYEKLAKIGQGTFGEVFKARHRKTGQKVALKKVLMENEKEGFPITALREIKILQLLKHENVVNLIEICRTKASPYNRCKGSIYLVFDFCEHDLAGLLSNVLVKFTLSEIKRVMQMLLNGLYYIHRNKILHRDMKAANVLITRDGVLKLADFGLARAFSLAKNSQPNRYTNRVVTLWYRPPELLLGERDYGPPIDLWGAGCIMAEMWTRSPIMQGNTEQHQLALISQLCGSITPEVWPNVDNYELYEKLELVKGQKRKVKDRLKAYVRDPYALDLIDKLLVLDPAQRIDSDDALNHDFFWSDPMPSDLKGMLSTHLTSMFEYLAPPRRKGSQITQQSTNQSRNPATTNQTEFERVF
- test-description: Selectivity interaction (Reporter displacement assay) EUB0001623a CDK9
measured-property: IC50

Challenge: Dear colleague, I am looking for the recorded IC50 of the following compound: Cc1n[nH]c2ncc(C(=O)N3CCC[C@H]3c3ccc(Cl)cc3)cc12
Response given: 4 nM

---

- target-or-test-system: Protein kinase C theta type (Homo sapiens)
- test-description: Selectivity interaction (Kinase panel (Invitrogen, enzymatic assay)) EUB0000623aCl PRKCQ
pIC50: −log10 of the molar value.
measured-property: pIC50

Challenge: Any idea what pIC50 came out for CC(C)(C)c1ccc(C(=O)Nc2cn3cc(-n4ccnc4)ccc3n2)cc1 on Protein kinase C theta type (Homo sapiens)?
Response given: < 5.00

---

- target-or-test-system: Mitogen-activated protein kinase 14 (Homo sapiens)
- Sequence (Q16539 whole entry): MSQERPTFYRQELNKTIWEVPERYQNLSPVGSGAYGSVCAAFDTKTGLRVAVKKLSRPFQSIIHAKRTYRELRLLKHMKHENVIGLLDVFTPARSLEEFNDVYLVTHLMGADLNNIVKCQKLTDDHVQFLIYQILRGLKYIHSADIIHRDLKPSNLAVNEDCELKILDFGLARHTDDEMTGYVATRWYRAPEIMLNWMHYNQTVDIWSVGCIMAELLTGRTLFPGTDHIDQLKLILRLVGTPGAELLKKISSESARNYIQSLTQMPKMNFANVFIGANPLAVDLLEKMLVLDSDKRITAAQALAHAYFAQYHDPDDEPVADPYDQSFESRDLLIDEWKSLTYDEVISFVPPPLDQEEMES
- test-description: Selectivity interaction (Radiometric kinase assay (using 10 uM ATP)) EUB0000601a MAPK14
measured-property: IC50

Challenge: Recorded IC50 for CCc1cc(Nc2nccc(-c3c(-c4ccc(OC)c(C(=O)Nc5c(F)cccc5F)c4)nc4ccccn34)n2)c(OC)cc1N1CCC(N2CCN(S(C)(=O)=O)CC2)CC1 with Mitogen-activated protein kinase 14 (Homo sapiens), please?
Response given: > 11 µM

---

- target-or-test-system: ATPase family AAA domain-containing protein 2 (Homo sapiens, UniProt Q6PL18)
- test-description: Selectivity interaction (BROMOscan) EUB0001074a ATAD2
measured-property: IC50

Challenge: Any idea what IC50 was measured for CCc1cc2cc(NS(=O)(=O)c3ccc(C#N)cc3)ccc2n(CC)c1=O ?
Response given: > 100 µM

---

- target-or-test-system: Cyclin-dependent kinase 13 (Homo sapiens)
- test-description: Selectivity interaction (Western blot assay (pull-down blockage of CDK7-cyclin H using lysates from Jurkat cells)) EUB0001635a CDK13
- Format: subcellular, lysate
pIC50: −log10 of the molar value.
measured-property: pIC50

Challenge: Request the reported pIC50 associated with C=CC(=O)Nc1ccc(C(=O)Nc2n[nH]c3c2CN(C(=O)N[C@H](CN(C)C)c2ccccc2)C3(C)C)cc1
Response given: < 6.00

---

- target-or-test-system: UniProtKB P08581
- Sequence (P08581 whole entry): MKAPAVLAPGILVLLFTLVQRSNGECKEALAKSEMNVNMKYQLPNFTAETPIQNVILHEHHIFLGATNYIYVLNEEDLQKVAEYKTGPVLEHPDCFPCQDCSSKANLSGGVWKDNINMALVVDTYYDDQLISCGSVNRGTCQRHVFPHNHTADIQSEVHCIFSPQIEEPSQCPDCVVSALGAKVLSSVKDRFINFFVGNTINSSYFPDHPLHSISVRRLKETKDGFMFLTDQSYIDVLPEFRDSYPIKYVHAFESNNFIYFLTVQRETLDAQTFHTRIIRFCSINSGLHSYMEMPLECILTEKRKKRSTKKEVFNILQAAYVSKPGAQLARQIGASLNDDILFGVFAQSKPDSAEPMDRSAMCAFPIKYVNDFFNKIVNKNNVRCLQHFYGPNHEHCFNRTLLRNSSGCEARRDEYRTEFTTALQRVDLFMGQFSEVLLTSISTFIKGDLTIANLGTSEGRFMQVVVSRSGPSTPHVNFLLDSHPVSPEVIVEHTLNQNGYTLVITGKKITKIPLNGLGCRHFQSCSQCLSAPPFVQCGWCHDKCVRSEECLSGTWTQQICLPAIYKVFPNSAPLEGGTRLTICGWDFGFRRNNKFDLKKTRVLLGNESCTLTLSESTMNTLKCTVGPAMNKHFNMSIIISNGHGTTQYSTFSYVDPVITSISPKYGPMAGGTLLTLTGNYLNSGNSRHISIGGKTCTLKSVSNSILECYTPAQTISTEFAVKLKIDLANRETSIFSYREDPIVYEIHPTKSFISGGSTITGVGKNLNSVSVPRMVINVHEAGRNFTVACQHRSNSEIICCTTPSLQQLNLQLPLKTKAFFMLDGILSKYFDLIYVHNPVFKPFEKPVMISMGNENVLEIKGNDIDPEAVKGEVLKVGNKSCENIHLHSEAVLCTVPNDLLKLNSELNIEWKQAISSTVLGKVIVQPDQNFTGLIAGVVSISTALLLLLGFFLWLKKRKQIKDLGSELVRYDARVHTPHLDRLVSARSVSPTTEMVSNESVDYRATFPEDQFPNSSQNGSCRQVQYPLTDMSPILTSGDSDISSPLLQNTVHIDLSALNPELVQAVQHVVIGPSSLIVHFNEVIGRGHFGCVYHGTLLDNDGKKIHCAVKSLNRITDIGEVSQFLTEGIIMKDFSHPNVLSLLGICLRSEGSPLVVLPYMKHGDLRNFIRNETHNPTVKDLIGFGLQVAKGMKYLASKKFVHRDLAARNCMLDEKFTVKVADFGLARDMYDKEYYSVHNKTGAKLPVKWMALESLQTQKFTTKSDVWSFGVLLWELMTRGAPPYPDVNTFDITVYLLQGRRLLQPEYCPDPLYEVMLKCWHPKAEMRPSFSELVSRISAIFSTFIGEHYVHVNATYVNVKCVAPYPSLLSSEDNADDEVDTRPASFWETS
- test-description: Selectivity interaction (Kinase panel (Enzyme activity assay)) EUB0000612a MET
measured-property: IC50

Challenge: Need IC50, item CCc1cccc(CC)c1NC(=O)c1nn(C)c2c1CCc1cnc(Nc3ccc(C(=O)NC4CCN(C)CC4)cc3OC(F)(F)F)nc1-2
Response given: > 10 µM

---

- target-or-test-system: Inhibitor of nuclear factor kappa-B kinase subunit epsilon (Homo sapiens, UniProt Q14164)
- test-description: Selectivity interaction (Enyzmatic assay) EUB0000601a IKBKE
measured-property: pIC50
Quick note: pIC50 values are minus log10 of concentrations in mol/L.

Challenge: # query: pIC50 | item CCc1cc(Nc2nccc(-c3c(-c4ccc(OC)c(C(=O)Nc5c(F)cccc5F)c4)nc4ccccn34)n2)c(OC)cc1N1CCC(N2CCN(S(C)(=O)=O)CC2)CC1 | system: Inhibitor of nuclear factor kappa-B kinase subunit epsilon (Homo sapiens, UniProt Q14164)
Response given: 5.49

---

- target-or-test-system: MAP kinase-interacting serine/threonine-protein kinase 2 (Homo sapiens, UniProt Q9HBH9)
- test-description: Selectivity interaction (Kinase panel (33PanQinase(R) Activity Assay)) EUB0000877a MKNK2
pIC50: −log10 of the molar value.
measured-property: pIC50

Challenge: Which measured pIC50 value corresponds to CCC(=O)N1CC[C@H](Nc2ncnc3c2CN(c2cnc(OC)c(C(F)(F)F)c2)CC3)C1 ?
Response given: < 5.00

---

- target-or-test-system: Tyrosine-protein kinase JAK3 (Homo sapiens)
- Sequence (P52333 whole entry): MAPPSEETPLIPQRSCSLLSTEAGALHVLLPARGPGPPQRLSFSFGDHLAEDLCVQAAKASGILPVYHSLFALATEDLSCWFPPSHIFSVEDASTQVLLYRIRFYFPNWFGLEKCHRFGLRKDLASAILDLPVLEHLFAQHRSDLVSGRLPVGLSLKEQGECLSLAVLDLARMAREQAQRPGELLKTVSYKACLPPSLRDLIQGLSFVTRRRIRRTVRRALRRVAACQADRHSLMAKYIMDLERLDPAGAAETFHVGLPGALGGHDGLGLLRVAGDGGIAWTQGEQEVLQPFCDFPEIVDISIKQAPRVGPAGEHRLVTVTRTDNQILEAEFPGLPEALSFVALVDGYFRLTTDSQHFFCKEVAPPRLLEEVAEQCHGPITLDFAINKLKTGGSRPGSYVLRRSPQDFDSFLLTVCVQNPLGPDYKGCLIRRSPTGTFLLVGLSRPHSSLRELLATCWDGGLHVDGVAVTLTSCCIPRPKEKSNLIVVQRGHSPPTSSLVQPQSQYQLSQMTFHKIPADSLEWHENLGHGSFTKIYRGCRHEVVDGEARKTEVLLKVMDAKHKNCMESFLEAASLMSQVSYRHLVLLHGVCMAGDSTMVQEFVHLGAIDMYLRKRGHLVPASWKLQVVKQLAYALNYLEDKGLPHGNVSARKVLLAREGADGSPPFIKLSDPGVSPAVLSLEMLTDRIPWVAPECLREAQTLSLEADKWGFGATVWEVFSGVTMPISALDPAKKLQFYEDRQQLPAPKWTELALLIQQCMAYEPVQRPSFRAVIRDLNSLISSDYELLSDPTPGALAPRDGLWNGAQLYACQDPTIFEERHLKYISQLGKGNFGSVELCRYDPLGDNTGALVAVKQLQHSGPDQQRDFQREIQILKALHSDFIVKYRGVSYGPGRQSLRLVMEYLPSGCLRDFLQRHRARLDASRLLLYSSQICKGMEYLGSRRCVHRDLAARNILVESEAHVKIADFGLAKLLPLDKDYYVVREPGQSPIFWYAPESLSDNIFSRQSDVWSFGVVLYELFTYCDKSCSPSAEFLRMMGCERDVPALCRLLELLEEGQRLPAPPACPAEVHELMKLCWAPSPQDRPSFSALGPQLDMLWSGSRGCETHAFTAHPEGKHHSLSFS
measured-property: IC50

Challenge: Need IC50, item CCc1cccc(CC)c1NC(=O)c1nn(C)c2c1CCc1cnc(Nc3ccc(C(=O)NC4CCN(C)CC4)cc3OC(F)(F)F)nc1-2
Response given: > 10 µM

---

- target-or-test-system: Interleukin-1 receptor-associated kinase 4 (Homo sapiens, UniProt Q9NWZ3)
- Sequence (Q9NWZ3 whole entry): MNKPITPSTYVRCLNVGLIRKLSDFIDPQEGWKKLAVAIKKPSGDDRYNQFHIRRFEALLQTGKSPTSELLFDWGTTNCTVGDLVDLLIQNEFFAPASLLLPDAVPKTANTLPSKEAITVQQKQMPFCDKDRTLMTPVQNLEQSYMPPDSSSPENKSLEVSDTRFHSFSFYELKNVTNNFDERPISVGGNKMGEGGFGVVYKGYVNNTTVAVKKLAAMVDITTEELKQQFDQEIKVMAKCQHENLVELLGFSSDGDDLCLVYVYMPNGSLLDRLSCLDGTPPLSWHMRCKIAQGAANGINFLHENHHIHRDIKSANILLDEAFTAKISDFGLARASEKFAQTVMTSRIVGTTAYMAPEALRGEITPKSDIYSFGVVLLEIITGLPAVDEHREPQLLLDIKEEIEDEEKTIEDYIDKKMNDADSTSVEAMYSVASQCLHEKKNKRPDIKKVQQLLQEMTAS
- test-description: Selectivity interaction (Kinase counterscreening (biochemical assay)) EUB0000604a IRAK4
pKi: −log10 of the molar value.
measured-property: pKi

Challenge: Which value of pKi has been reported for Cc1cnc(Nc2ccc(F)cc2Cl)nc1-c1c[nH]c(C(=O)N[C@H](CO)c2cccc(Cl)c2)c1 in the records?
Response given: < 5.40

---

- target-or-test-system: Dual specificity protein kinase CLK3 (Homo sapiens, UniProt P49761)
- test-description: Selectivity interaction (Radioactive assay (Reaction Biology)) EUB0001046a CLK3
measured-property: IC50

Challenge: Would you mind telling me what IC50 value was observed for CN(c1ncccc1CNc1ccnc(-c2cc3cc(Cl)ccc3[nH]2)n1)S(C)(=O)=O ?
Response given: > 10 µM

---

Target protein (sequence): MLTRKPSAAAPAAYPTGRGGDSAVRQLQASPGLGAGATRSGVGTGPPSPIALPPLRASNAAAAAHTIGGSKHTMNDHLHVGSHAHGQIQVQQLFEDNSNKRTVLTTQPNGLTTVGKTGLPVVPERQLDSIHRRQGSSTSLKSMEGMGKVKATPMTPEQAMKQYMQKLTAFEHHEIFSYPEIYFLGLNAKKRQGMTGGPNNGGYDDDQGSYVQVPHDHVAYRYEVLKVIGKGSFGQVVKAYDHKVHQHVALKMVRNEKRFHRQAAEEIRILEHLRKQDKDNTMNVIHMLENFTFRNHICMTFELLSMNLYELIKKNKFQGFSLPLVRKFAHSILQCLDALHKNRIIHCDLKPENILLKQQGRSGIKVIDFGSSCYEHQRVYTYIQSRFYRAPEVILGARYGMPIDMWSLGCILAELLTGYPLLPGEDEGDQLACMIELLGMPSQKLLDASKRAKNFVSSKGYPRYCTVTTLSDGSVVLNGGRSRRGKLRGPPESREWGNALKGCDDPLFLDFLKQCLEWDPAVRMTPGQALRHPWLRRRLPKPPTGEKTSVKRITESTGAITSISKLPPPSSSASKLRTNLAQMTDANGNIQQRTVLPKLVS
pIC50: −log10 of the molar value.
measured-property: pIC50

Challenge: Request the reported pIC50 associated with CN(c1ncccc1CNc1ccnc(-c2nc3c(F)c(Cl)ccc3[nH]2)n1)S(C)(=O)=O
Response given: < 5.00
